The origin of these recorded values is PubChem BioAssay (NCI).

system: SNB-19 CNS; test: NCI tumour cell line growth inhibition, 48 h
QUANTITY_KIND: TGI

{"MOLECULE": "COc1cccc(OC(=O)c2ccccc2Nc2ccnc(C(F)(F)F)c2)c1", "QUANTITY_KIND": "TGI", "RESULT": "> 100 µM"}
{"MOLECULE": "COc1ccccc1[N-]C(C1=C([O-])c2ccccc2C1=O)c1ccccc1.COc1ccccc1[N-]C(C1=C([O-])c2ccccc2C1=O)c1ccccc1.[Cu+2] (configuration not stated)", "QUANTITY_KIND": "TGI", "RESULT": "81.8 µM"}
{"MOLECULE": "NC(=S)NNC(=O)/C(=C/c1ccc(/C=C(\\NC(=O)c2ccccc2)C(=O)NNC(N)=S)cc1)NC(=O)c1ccccc1", "QUANTITY_KIND": "TGI", "RESULT": "> 100 µM"}
{"MOLECULE": "Nc1nc(/C=C\\c2ccc([N+](=O)[O-])o2)nc(N2CCN(c3ccccc3)CC2)n1", "QUANTITY_KIND": "TGI", "RESULT": "83.8 µM"}
{"MOLECULE": "C=C1C(=O)C([Si](C)(C)C)=C2C=C(C)C3(CC3)C12C (configuration not stated)", "QUANTITY_KIND": "TGI", "RESULT": "> 100 µM"}
{"MOLECULE": "O=C(CCN1CCCC1)Nc1ccc2c(NCc3ccc(F)cc3)c3ccccc3nc2c1", "QUANTITY_KIND": "TGI", "RESULT": "1.87 µM"}
{"MOLECULE": "O=C(O)CSSCC(=O)O", "QUANTITY_KIND": "TGI", "RESULT": "> 100 µM"}
{"MOLECULE": "O=C(CCn1[nH]c(=O)c(Cl)c(Cl)c1=O)NOCCCc1ccccc1", "QUANTITY_KIND": "TGI", "RESULT": "> 100 µM"}
{"MOLECULE": "C=C1C(=O)O[C@@H]2C1CC(=O)C(C)CC/C=C(\\C)CCC[C@H](C)[C@H]2OC(C)=O (some centres not stated)", "QUANTITY_KIND": "TGI", "RESULT": "> 100 µM"}
{"MOLECULE": "CN(C)CCCNC(=O)c1cc(NC(=O)CCNS(=O)(=O)c2ccc3c(c2)C(=O)c2ccccc2C3=O)cn1C", "QUANTITY_KIND": "TGI", "RESULT": "> 100 µM"}
{"MOLECULE": "CN(C)CCNC(=O)c1cccn2c(=O)c3cc4ccccc4cc3nc12", "QUANTITY_KIND": "TGI", "RESULT": "47.7 µM"}
{"MOLECULE": "CCOC(=O)CSc1ccnc(=O)[nH]1", "QUANTITY_KIND": "TGI", "RESULT": "> 100 µM"}
{"MOLECULE": "O=C(CC1Sc2ccccc2NC1=O)Nc1cc(Cl)ccc1Cl (configuration not stated)", "QUANTITY_KIND": "TGI", "RESULT": "> 100 µM"}
{"MOLECULE": "O=c1[nH]c(=O)n(C2OC(CO)C(O)C(F)C2O)cc1F (configuration not stated)", "QUANTITY_KIND": "TGI", "RESULT": "> 100 µM"}
{"MOLECULE": "COc1cc(Cn2cc3c(c2)-c2oncc2CC3)cc(OC)c1OC", "QUANTITY_KIND": "TGI", "RESULT": "> 100 µM"}
{"MOLECULE": "O=C(O)C1CC2C3CCC2C1C3=O (configuration not stated)", "QUANTITY_KIND": "TGI", "RESULT": "> 100 µM"}
{"MOLECULE": "N#CC(C#N)=CN1CCN(C(=O)c2ccco2)C1=S", "QUANTITY_KIND": "TGI", "RESULT": "82 µM"}
{"MOLECULE": "N#CSc1ncnc2nc[nH]c12", "QUANTITY_KIND": "TGI", "RESULT": "> 100 µM"}
{"MOLECULE": "CCOC(=O)Cc1c[nH]c(=S)[nH]c1=O", "QUANTITY_KIND": "TGI", "RESULT": "> 100 µM"}
{"MOLECULE": "CCOC(=O)CCC(NC(=O)Cc1ccc(Nc2nc3ccccc3nc2-c2ccccc2)cc1)C(=O)OCC (configuration not stated)", "QUANTITY_KIND": "TGI", "RESULT": "> 100 µM"}
{"MOLECULE": "O=C(O)C(=C\\c1ccc2c(c1)OCO2)/C(=C/c1ccc2c(c1)OCO2)C(=O)O", "QUANTITY_KIND": "TGI", "RESULT": "> 100 µM"}
{"MOLECULE": "Cc1ccc(NCC2CC/C(=C\\c3ccc(Cl)cc3)C2=O)cc1 (configuration not stated)", "QUANTITY_KIND": "TGI", "RESULT": "> 55.7 µM"}
{"MOLECULE": "CCN(CC)CCOc1ccc(C(=C(C)c2ccc(Cl)cc2)c2ccc(OCCN(CC)CC)cc2)cc1", "QUANTITY_KIND": "TGI", "RESULT": "1.56 µM"}
{"MOLECULE": "O=C(NC(C(F)(F)F)(C(F)(F)F)P(=O)(c1ccccc1)c1ccccc1)C(C(F)(F)F)C(F)(F)F", "QUANTITY_KIND": "TGI", "RESULT": "> 100 µM"}
{"MOLECULE": "Nc1ccn(C2CC(O)C(COP(O)(=S)OC3CC(n4ccc(N)nc4=O)OC3CO)O2)c(=O)n1 (configuration not stated)", "QUANTITY_KIND": "TGI", "RESULT": "> 100 µM"}
{"MOLECULE": "CC1(C)C(=O)N(O)C(C)(C)N1O", "QUANTITY_KIND": "TGI", "RESULT": "> 10 µM"}
{"MOLECULE": "O=S1(=O)c2cnccc2NC(=NCc2cccc3ccccc23)N1c1ccccc1", "QUANTITY_KIND": "TGI", "RESULT": "> 100 µM"}
{"MOLECULE": "CC1=NC(=O)C(C)(c2ccccc2)N1CCc1ccccc1 (configuration not stated)", "QUANTITY_KIND": "TGI", "RESULT": "> 100 µM"}
{"MOLECULE": "CC(C)OP(=O)(OC(C)C)C(C(C)C)N(C)/C(N)=N\\C1=NC(C(F)(F)F)(C(F)(F)F)N=C(C(C(F)(F)F)C(F)(F)F)O1 (configuration not stated)", "QUANTITY_KIND": "TGI", "RESULT": "44.9 µM"}
{"MOLECULE": "NC(=O)c1cc2ccccc2oc1=Nc1ccccc1", "QUANTITY_KIND": "TGI", "RESULT": "> 100 µM"}
{"MOLECULE": "O=C(O)C1C(C(=O)O)C2C(=O)C=CC1N2Cc1ccccc1 (configuration not stated)", "QUANTITY_KIND": "TGI", "RESULT": "18.2 µM"}
{"MOLECULE": "CSc1nnc(CCSc2ccnc3c(C(F)(F)F)cccc23)o1", "QUANTITY_KIND": "TGI", "RESULT": "> 100 µM"}
{"MOLECULE": "Fc1ccc2[nH]cc(Cc3c[nH]c4ccc(F)cc34)c2c1", "QUANTITY_KIND": "TGI", "RESULT": "51.9 µM"}
{"MOLECULE": "CC1CC2OC(=O)C3CC(O)CC(=C23)[C@@]12C[C@@H](c1ccoc1)OC2=O (some centres not stated)", "QUANTITY_KIND": "TGI", "RESULT": "> 100 µM"}
{"MOLECULE": "Cc1occc1C(=S)Nc1ccc(Cl)c(C(=O)OCC(F)(F)F)c1", "QUANTITY_KIND": "TGI", "RESULT": "43.9 µM"}
{"MOLECULE": "CCOC(=O)c1c2c(n(CC(C)C)c1C)-c1nc[nH]c1C(=O)C2=O", "QUANTITY_KIND": "TGI", "RESULT": "30.1 µM"}
{"MOLECULE": "CC1(Sc2ccccc2)CN(Cc2ccccc2)C1=O (configuration not stated)", "QUANTITY_KIND": "TGI", "RESULT": "> 100 µM"}
{"MOLECULE": "N#Cc1ncc(/N=C/c2ccc(N(CCCl)CCCl)cc2)s1", "QUANTITY_KIND": "TGI", "RESULT": "> 100 µM"}
{"MOLECULE": "CN(C)c1ccc(/C=C/C=C\\C2=CC(=C\\C=C/C=C3C=CC(=[N+](C)C)C=C3)/Sc3ccccc32)cc1", "QUANTITY_KIND": "TGI", "RESULT": "> 100 µM"}
{"MOLECULE": "COc1ccc(OC)c2sc(N3C(=O)/C(=C/Cc4ccco4)N=C3c3ccccc3)nc12", "QUANTITY_KIND": "TGI", "RESULT": "> 100 µM"}
{"MOLECULE": "O=S(=O)([O-])[O-].[Fe+2].c1ccc(/C(=N\\Nc2ccccn2)c2ccccn2)cc1", "QUANTITY_KIND": "TGI", "RESULT": "15.4 µM"}
{"MOLECULE": "CC(=O)/C(=C\\c1ccco1)C(=O)Nc1ccccc1", "QUANTITY_KIND": "TGI", "RESULT": "> 100 µM"}
